Listed below: GI50 values for each entry.
- Test system: HL-60
- MEASUREMENT NOTES: NCI tumour cell line growth inhibition, 48 h
Activity calls are given as the source filed them. Rule as the data show it: active = GI50 up to about 1.1 µM and inactive = higher.

Worked examples follow.
1. COc1ccc(NC(=O)C(C)Oc2ccc(OCC3CCCCC3)cc2)cc1 (centres undefined): 42.2 µM (inactive)
2. C[n+]1cn(C2=C([N-]S(=O)(=O)c3ccccc3)C(=O)c3ccccc3C2=O)c2ccccc21: 13 µM (inactive)
3. CCCc1nc(NC#N)nc(C(=O)NC23CC4CC(CC(C4)C2)C3)c1C: > 100 µM (inactive)

GI50 for C#CCC[C@@H]1O[C@@]1(C)CC/C=C(\C)CC/C=C/C=O ? 23.9 µM (inactive)

* * *

- System: TK-10
- MEASUREMENT NOTES: NCI tumour cell line growth inhibition, 48 h
Active and inactive are the calls of the source. Cut-off read from the data, not from the text of the source: active = GI50 up to about 1.1 µM and inactive = higher.
OBSERVATION TYPE: GI50

1) COc1cc(C(=O)CC2(O)C(=O)Nc3c(Cl)cc(Cl)cc32)ccc1O (stereo not drawn): > 100 µM (inactive)
2) COc1ccc(/C=N/n2c(Cc3ccccc3)n[nH]c2=O)c(OC)c1: 27.3 µM (inactive)
3) CCOC(=O)c1c2c(n(Cc3ccccc3)c1C)C(=O)C(=O)c1ccccc1-2: 0.64 µM (active)
4) Cn1cc(NC(=O)c2cc(NC(=O)CCCCCCCC(=O)Nc3cc(C(=O)Nc4cc(C(=O)NCCC(=N)N)n(C)c4)n(C)c3)cn2C)cc1C(=O)NCCC(=N)N: 15 µM (inactive)
5) OCN(CO)c1ccc2c(c1)Cc1cc(F)ccc1-2: 18.7 µM (inactive)
6) O=C(NCCO)c1cc2c(cn1)[nH]c1ccccc12: > 100 µM (inactive)
7) COc1ccc(N(CN2C(=O)CCC2C(=O)O)C(C)=O)cc1 (stereo not drawn): > 100 µM (inactive)
8) COC1=C(OC)C(=O)C(Cc2c(Cl)nc3sc(C)cn23)=C(C)C1=O: 16.4 µM (inactive)
9) COc1ccc(C(=O)c2c(-c3ccccc3NC(=O)C(F)(F)F)[nH]c3ccccc23)cc1: 11.6 µM (inactive)
10) NC(=S)N/N=C(/CC(=O)c1ccccc1)C(=O)Nc1ccc(Cl)c(Cl)c1: > 100 µM (inactive)

GI50 for Cc1cccc(Cl)c1NC(N)=S ? 50.9 µM (inactive)

GI50 for CC1=C(c2cc(C(=O)Nc3cccc(C(F)(F)F)c3)ncn2)Sc2ccccc2N1 ? > 100 µM (inactive)

GI50 for O=C1CC(c2ccc(Cl)cc2)C2(C(=O)NC(=S)NC2=O)C(c2ccc(Cl)cc2)C1 (stereo not drawn) ? 41.1 µM (inactive)

GI50 for O=c1[nH]c2cc(Cl)ccc2nc1/C(=N/Nc1ccccc1)C(O)c1ccco1 (stereo not drawn) ? > 100 µM (inactive)

GI50 for O=C(O)c1ccc(/C=N\N(CCO)C2=NCCN2)cc1 ? > 100 µM (inactive)

GI50 for Cc1cc2c(cc1Cl)Sc1nnc(C)n1S2(=O)=O ? 15.6 µM (inactive)

GI50 for Oc1nc(-c2cccc(F)c2)nc2ccccc12 ? 34.6 µM (inactive)

GI50 for COc1cccc([C@@H]2C/C(=N\NC(=O)C(=O)N[C@@H](C)c3ccccc3)c3cc4c(cc3N2)OCO4)c1 ? > 100 µM (inactive)

GI50 for COC(=O)C(=O)C(C(=O)C(=O)Nc1nc2ccc(C)cc2s1)c1nc2ccc([N+](=O)[O-])cc2nc1O (stereo not drawn) ? > 100 µM (inactive)

GI50 for CCC(CCCC[C@H]1CC[C@@H]2CC(=O)C[C@H]12)OC (stereo partly drawn) ? > 100 µM (inactive)

GI50 for COc1cccc(C2c3cc4c(cc3OC(N3CCOCC3)C2C)OCO4)c1OC (stereo not drawn) ? 15.5 µM (inactive)

GI50 for CC(=O)[O-].Cc1ncc(CO)c(/C=N/NC(N)=S)c1[O-].[Zn+2] ? > 100 µM (inactive)

GI50 for COC(=O)CCC(NC(=O)C(C)NC(=O)COC1C(O)C(OC(=O)CCNc2c3ccccc3nc3cccc([N+](=O)[O-])c23)OC(OCc2ccccc2)C1NC(C)=O)C(N)=O (stereo not drawn) ? > 10 µM (inactive)

* * *

- System: 786-0
- MEASUREMENT NOTES: NCI tumour cell line growth inhibition, 48 h
Activity calls are given as the source filed them. Rule as the data show it: active = GI50 up to about 1.1 µM and inactive = higher.
Listed below: GI50 values for each entry.

Worked examples follow.
1) CC1(C)CC(=O)C(=CNC(N)=S)C(=O)C1: > 100 µM (inactive)
2) Cc1cc(-c2ccc(Cl)cc2)c(C#N)c(=S)n1C1OC(CO)C(O)C(O)C1O (centres undefined): > 100 µM (inactive)
3) NC(=S)N/N=C(\CC1OC(=O)c2ccccc21)c1ccc(Cl)cc1 (centres undefined): 43.4 µM (inactive)

Now turn to the next compound.
GI50 for Cc1cc2c(cc1Cl)Sc1nnc(C)n1S2(=O)=O ? 16.1 µM (inactive)

* * *

- Test system: SW-620
- MEASUREMENT NOTES: NCI tumour cell line growth inhibition, 48 h
Active and inactive are the calls of the source. Cut-off read from the data, not from the text of the source: active = GI50 up to about 1.1 µM and inactive = higher. Where a SMILES comes first, the peptide text is derived from it. The star is where a group is joined. Boc = CC(C)(C)OC(=O)*
OBSERVATION TYPE: GI50

Worked examples follow.
1. O=c1[nH]nc(-c2ccccc2)n1/N=C/c1cccnc1: > 100 µM (inactive)
2. COc1ccccc1/C=C1\SC(=S)N(/C=C2\C(=O)Oc3ccccc3C2=O)C1=O: 43.2 µM (inactive)
3. O=C(O)c1ccc(/C=N\N(CCO)C2=NCCN2)cc1: > 100 µM (inactive)
4. Oc1ccccc1CNCc1nc2ccccc2[nH]1: 55.3 µM (inactive)
5. COc1cc(C)c2c(c1C)OC(=O)c1c(C)c(Cl)c(O)c(C=O)c1O2: 31.8 µM (inactive)
6. COC([C@@H](OC(=O)c1ccccc1)[C@H](OC(=O)c1ccccc1)C(O)COC(=O)c1ccccc1)n1cc(C)c(=O)[nH]c1=O (stereo partly specified): 21.3 µM (inactive)
7. COC1(CC[C@@H](C)COC2OC(CO)C(O)C(O)C2O)OC2C[C@H]3[C@@H]4CC[C@H]5C[C@@H](OC6OC(CO)C(OC7OC(CO)C(O)C(O)C7O)C(O)C6OC6OC(C)C(O)C(O)C6O)[C@H](O)C[C@]5(C)[C@H]4CC[C@]3(C)C2[C@@H]1C (stereo partly specified): 2.06 µM (inactive)
8. COC(=O)C1=C(OC(=O)c2ccccc2)C(C(=O)OC)[C@@]2(O)[C@@H](C(=O)OC)[C@H](C)C[C@@H]1[C@@H]2C(=O)OC (stereo partly specified): 28.6 µM (inactive)
9. COC(=O)C(Cc1c[nH]c2ccccc12)NC(=O)C(Cc1c[nH]c2ccccc12)NC(=O)C(Cc1c[nH]c2ccccc12)NC(=O)OC(C)(C)C (stereo not drawn) (Boc-Trp-Trp-Trp-OMe; configuration not given here): 21.5 µM (inactive)
10. CO[C@]12CC(=O)C3(C(C[C@H]4CC5CCC6=CC(=O)CC[C@]6(OC(C)=O)C5C[C@@]43C)C1)C1C[C@H]3[C@@H]4CCC5=CC(=O)CC[C@]5(OC(C)=O)[C@H]4CC[C@]3(C)C12 (stereo partly specified): > 100 µM (inactive)

Now turn to the next molecule.
GI50 for COc1ccc(C2=C(Cl)c3cc(OC)c(OC)cc3C2=O)cc1OC ? 12.7 µM (inactive)

* * *

- System: ACHN
- MEASUREMENT NOTES: NCI tumour cell line growth inhibition, 48 h
The source made the active and inactive calls. Rule as the data show it: active = GI50 up to about 1.1 µM and inactive = higher.
OBSERVATION TYPE: GI50

Worked examples follow.
1) CC1=CCC[C@H]2[C@](C)(CC3=CC(=O)C(SCC(C)C)=CC3=O)[C@@H](C)CC[C@]12C: 15.6 µM (inactive)
2) COC(=O)C1=C(O)C(C(=O)OC)[C@@]2(O)[C@@H](C(=O)OC)CC[C@@H]1[C@@H]2C(=O)OC (stereo partly drawn): 39.2 µM (inactive)

Now turn to the next molecule.
GI50 for COC1=N[C@H](C(C)C)C(OC)=N[C@H]1Cc1ccc(C[C@@H]2N=C(OC)[C@@H](C(C)C)N=C2OC)s1 ? 29.4 µM (inactive)

* * *

- Tested on: SF-295
- MEASUREMENT NOTES: NCI tumour cell line growth inhibition, 48 h
Active and inactive are the calls of the source. Rule as the data show it: active = GI50 up to about 1.1 µM and inactive = higher.
OBSERVATION TYPE: GI50

Worked examples follow.
1) CCCC(=O)[O-].[Na+] [SODIUM BUTYRATE]: 7660 µM (inactive)
2) COc1c2ccoc2c(OC)c2oc(=O)ccc12: > 100 µM (inactive)

GI50 for CCOC(=O)CSc1[nH]c2nc(C)nc(Cl)c2c1C#N ? > 10 µM (inactive)

GI50 for CCOC(=O)C(C)(C)Oc1ccc2c(=O)cc(-c3ccc(Cl)cc3)oc2c1 ? > 100 µM (inactive)

GI50 for C[n+]1cn(C2=C([N-]S(=O)(=O)c3ccccc3)C(=O)c3ccccc3C2=O)c2ccccc21 ? 61.4 µM (inactive)
